Test Target: Integrin alpha-4/beta-7 (Homo sapiens) (UniProt P13612+P26010)
Method Summary: Selectivity for alpha4-beta7 to that of alpha4-beta1
Type: protein-complex assay
Classification by Ratio | ranges: low = under 20, medium = from 20 up to 40, high = 40 and over

{"Compound Structure": "COc1ccccc1-c1ccc(C[C@H](NC(=O)[C@@]2(C(=O)N3CCCC3)CCCO2)C(=O)O)cc1", "Test Target": "Integrin alpha-4/beta-7 (Homo sapiens) (UniProt P13612+P26010)", "Discrete Label": "low"}
{"Compound Structure": "COc1cccc(OC)c1-c1ccc(C[C@H](NC(=O)[C@@]2(c3ccc(Cl)c([N+](=O)[O-])c3)CCCO2)C(=O)O)cc1", "Test Target": "Integrin alpha-4/beta-7 (Homo sapiens) (UniProt P13612+P26010)", "Discrete Label": "high"}
{"Compound Structure": "COc1cccc(OC)c1-c1ccc(C[C@H](NC(=O)[C@@]2(CCCCN(C)C)CCCO2)C(=O)O)cc1", "Test Target": "Integrin alpha-4/beta-7 (Homo sapiens) (UniProt P13612+P26010)", "Discrete Label": "low"}
{"Compound Structure": "CCOC(=O)[C@]1(C(=O)N[C@@H](Cc2ccc(-c3ccccc3OC)cc2)C(=O)O)CCCO1", "Test Target": "Integrin alpha-4/beta-7 (Homo sapiens) (UniProt P13612+P26010)", "Discrete Label": "low"}
{"Compound Structure": "COc1cccc(OC)c1-c1ccc(C[C@H](NC(=O)[C@@]2(CC(C)C)CCCO2)C(=O)O)cc1", "Test Target": "Integrin alpha-4/beta-7 (Homo sapiens) (UniProt P13612+P26010)", "Discrete Label": "low"}
{"Compound Structure": "COc1cccc(OC)c1-c1ccc(C[C@H](NC(=O)[C@@]2(CCCCO)CCCO2)C(=O)O)cc1", "Test Target": "Integrin alpha-4/beta-7 (Homo sapiens) (UniProt P13612+P26010)", "Discrete Label": "low"}
{"Compound Structure": "COc1ccccc1-c1ccc(C[C@H](NC(=O)[C@@]2(c3ccc(F)cc3)CCCO2)C(=O)O)cc1", "Test Target": "Integrin alpha-4/beta-7 (Homo sapiens) (UniProt P13612+P26010)", "Discrete Label": "low"}
{"Compound Structure": "CCCC[C@]1(C(=O)N[C@@H](Cc2ccc(-c3c(OC)cccc3OC)cc2)C(=O)O)CCCO1", "Test Target": "Integrin alpha-4/beta-7 (Homo sapiens) (UniProt P13612+P26010)", "Discrete Label": "medium"}
{"Compound Structure": "COc1cccc(OC)c1-c1ccc(C[C@H](NC(=O)[C@@]2(c3ccc(Cl)cc3)CCCO2)C(=O)O)cc1", "Test Target": "Integrin alpha-4/beta-7 (Homo sapiens) (UniProt P13612+P26010)", "Discrete Label": "high"}
{"Compound Structure": "COc1cccc(OC)c1-c1ccc(C[C@H](NC(=O)[C@@]2(c3cccc(N)c3)CCCO2)C(=O)O)cc1", "Test Target": "Integrin alpha-4/beta-7 (Homo sapiens) (UniProt P13612+P26010)", "Discrete Label": "medium"}
{"Compound Structure": "COc1cccc(OC)c1-c1ccc(C[C@H](NC(=O)[C@@]2(c3ncc(C)s3)CCCO2)C(=O)O)cc1", "Test Target": "Integrin alpha-4/beta-7 (Homo sapiens) (UniProt P13612+P26010)", "Discrete Label": "high"}
{"Compound Structure": "COc1cccc(OC)c1-c1ccc(C[C@H](NC(=O)[C@@]2(c3cccc([N+](=O)[O-])c3)CCCO2)C(=O)O)cc1", "Test Target": "Integrin alpha-4/beta-7 (Homo sapiens) (UniProt P13612+P26010)", "Discrete Label": "high"}

The measured values listed here are drawn from ChEMBL document CHEMBL1135130.
